# MEASURED_ON: T1, Desmoglein 2 (DSG2) on cells (human, UniProt Q14126 50-1118)
# T1 sequence (looked up): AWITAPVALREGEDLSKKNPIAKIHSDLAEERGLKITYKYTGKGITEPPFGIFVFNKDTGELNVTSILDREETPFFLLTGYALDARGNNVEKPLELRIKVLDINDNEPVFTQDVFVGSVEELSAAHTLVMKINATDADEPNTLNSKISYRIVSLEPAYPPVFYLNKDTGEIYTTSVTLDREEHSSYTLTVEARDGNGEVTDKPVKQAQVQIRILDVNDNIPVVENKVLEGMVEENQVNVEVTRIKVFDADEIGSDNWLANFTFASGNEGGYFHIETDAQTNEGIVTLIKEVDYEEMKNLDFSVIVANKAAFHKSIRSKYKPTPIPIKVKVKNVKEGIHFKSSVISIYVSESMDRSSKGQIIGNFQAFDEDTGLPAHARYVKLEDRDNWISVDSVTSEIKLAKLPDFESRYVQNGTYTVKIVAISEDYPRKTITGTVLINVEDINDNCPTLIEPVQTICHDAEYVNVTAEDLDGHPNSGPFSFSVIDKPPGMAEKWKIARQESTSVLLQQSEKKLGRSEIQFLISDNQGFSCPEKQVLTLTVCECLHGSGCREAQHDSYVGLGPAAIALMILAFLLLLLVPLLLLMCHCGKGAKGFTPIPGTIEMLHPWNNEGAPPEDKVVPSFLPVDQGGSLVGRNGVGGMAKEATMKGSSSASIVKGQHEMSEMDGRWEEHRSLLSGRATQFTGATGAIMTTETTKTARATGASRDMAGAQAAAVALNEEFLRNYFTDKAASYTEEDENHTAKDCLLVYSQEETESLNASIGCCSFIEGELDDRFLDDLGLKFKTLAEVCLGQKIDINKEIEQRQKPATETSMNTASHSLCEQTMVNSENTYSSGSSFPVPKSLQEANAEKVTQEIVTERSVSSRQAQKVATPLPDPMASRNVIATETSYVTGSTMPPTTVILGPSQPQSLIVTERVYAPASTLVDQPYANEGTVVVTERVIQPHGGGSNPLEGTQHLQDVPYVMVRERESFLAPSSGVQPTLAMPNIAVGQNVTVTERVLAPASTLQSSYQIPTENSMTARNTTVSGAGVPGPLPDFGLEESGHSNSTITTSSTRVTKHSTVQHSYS
# EXPERIMENT_NOTES: cell-based or functional assay
EXPERIMENTAL_ENDPOINT: Inhibition of infection in the presence of dimeric knob (JO-1 = 100%)

BINDER	EXPERIMENTAL_RESULT
dimeric Ad3 fiber knob mutant D261N, L296R (ligand, JO-1 format; Positions count on the full Ad3 fiber; also called combination of D261N and L296R) MKVSALKEKVSALKEKVSALKEKVSALKEKVSALKEGSGGGSGGGSGGGSNSIALKNNTLWTGPKPEANCIIEYGKQNPDSKLTLILVKNGGIVNGYVTLMGASDYVNTLFKNKNVSINVELYFDATGHILPDSSSLKTDLELKYKQTADFSARGFMPSTTAYPFVLPNAGTHNENYIFGQCYYKASNGALFPLEVTVMLNKRLPDSRTSYVMTFLWSLNAGRAPETTQATLITSPFTFSYIREDD	1.5 % (JO-1 = 100%)
dimeric Ad3 fiber knob mutant S190P (ligand, JO-1 format; also called 5190P) MKVSALKEKVSALKEKVSALKEKVSALKEKVSALKEGSGGGSGGGSGGGSNSIALKNNTLWTGPKPEANCIIEYGKQNPDSKLTLILVKNGGIVNGYVTLMGASDYVNTLFKNKNVPINVELYFDATGHILPDSSSLKTDLELKYKQTADFSARGFMPSTTAYPFVLPNAGTHNENYIFGQCYYKASDGALFPLEVTVMLNKRLPDSRTSYVMTFLWSLNAGLAPETTQATLITSPFTFSYIREDD	30.9 % (JO-1 = 100%)
dimeric Ad3 fiber knob mutant N186D (ligand, Self-dimerizing form (JO-1 format)) MKVSALKEKVSALKEKVSALKEKVSALKEKVSALKEGSGGGSGGGSGGGSNSIALKNNTLWTGPKPEANCIIEYGKQNPDSKLTLILVKNGGIVNGYVTLMGASDYVNTLFKDKNVSINVELYFDATGHILPDSSSLKTDLELKYKQTADFSARGFMPSTTAYPFVLPNAGTHNENYIFGQCYYKASDGALFPLEVTVMLNKRLPDSRTSYVMTFLWSLNAGLAPETTQATLITSPFTFSYIREDD	32.7 % (JO-1 = 100%)
dimeric Ad3 fiber knob mutant F265L (ligand, JO-1 format) MKVSALKEKVSALKEKVSALKEKVSALKEKVSALKEGSGGGSGGGSGGGSNSIALKNNTLWTGPKPEANCIIEYGKQNPDSKLTLILVKNGGIVNGYVTLMGASDYVNTLFKNKNVSINVELYFDATGHILPDSSSLKTDLELKYKQTADFSARGFMPSTTAYPFVLPNAGTHNENYIFGQCYYKASDGALLPLEVTVMLNKRLPDSRTSYVMTFLWSLNAGLAPETTQATLITSPFTFSYIREDD	17.6 % (JO-1 = 100%)
dimeric Ad3 fiber knob mutant V189G (ligand, JO-1 format) MKVSALKEKVSALKEKVSALKEKVSALKEKVSALKEGSGGGSGGGSGGGSNSIALKNNTLWTGPKPEANCIIEYGKQNPDSKLTLILVKNGGIVNGYVTLMGASDYVNTLFKNKNGSINVELYFDATGHILPDSSSLKTDLELKYKQTADFSARGFMPSTTAYPFVLPNAGTHNENYIFGQCYYKASDGALFPLEVTVMLNKRLPDSRTSYVMTFLWSLNAGLAPETTQATLITSPFTFSYIREDD	54 % (JO-1 = 100%)

Now for another entry.
Dear colleague, please send me the reported Inhibition of infection in the presence of dimeric knob (JO-1 = 100%) for dimeric Ad3 fiber knob mutant N186D, D261N (ligand, JO-1 format; Positions count on the full Ad3 fiber; also called combination of N186D and D261N) MKVSALKEKVSALKEKVSALKEKVSALKEKVSALKEGSGGGSGGGSGGGSNSIALKNNTLWTGPKPEANCIIEYGKQNPDSKLTLILVKNGGIVNGYVTLMGASDYVNTLFKDKNVSINVELYFDATGHILPDSSSLKTDLELKYKQTADFSARGFMPSTTAYPFVLPNAGTHNENYIFGQCYYKASNGALFPLEVTVMLNKRLPDSRTSYVMTFLWSLNAGLAPETTQATLITSPFTFSYIREDD when you can.
5.2 % (JO-1 = 100%)
